Biological target: CK1ε (Homo sapiens)
Sequence (P49674 whole entry): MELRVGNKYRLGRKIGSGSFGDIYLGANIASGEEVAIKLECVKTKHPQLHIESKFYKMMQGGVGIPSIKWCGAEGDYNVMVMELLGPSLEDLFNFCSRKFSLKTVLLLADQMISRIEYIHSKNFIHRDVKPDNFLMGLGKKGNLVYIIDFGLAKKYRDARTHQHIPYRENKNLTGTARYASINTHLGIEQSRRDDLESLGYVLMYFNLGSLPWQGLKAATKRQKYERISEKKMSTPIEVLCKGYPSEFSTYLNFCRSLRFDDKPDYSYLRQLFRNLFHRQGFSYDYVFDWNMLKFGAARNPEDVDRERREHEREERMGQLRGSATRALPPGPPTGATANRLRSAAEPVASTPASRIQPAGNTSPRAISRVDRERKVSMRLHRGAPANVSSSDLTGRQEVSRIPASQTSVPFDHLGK
Test: CK1ε kinase assay (Caliper LabChip electrophoretic separation of fluoresceinated peptide substrate and product)
Assay type: biochemical
Settings: 200 pM CK1ε, 50 μM ATP, 1.5 μM peptide, 22 hours at room temperature; read-out: CK1ε IC50 range
pIC50: −log10 of the molar value.
metric: pIC50

INSERT INTO measurements (compound, reading) VALUES
  ('NC(=O)c1c(-c2cccc(Cl)c2)nn2c1CN(C(=O)NC1CC(F)(F)C1)CC2', '7.00 to 8.00'),
  ('CS[C@H]1C[C@@H](NC(=O)N2CCn3nc(-c4ccc(F)c(Cl)c4)c(C(N)=O)c3C2)C1', '8.00 to 11.00'),
  ('N#Cc1ccc([C@H]2C[C@@H](NC(=O)N3CCn4nc(-c5ccc(Cl)c(Cl)c5)c(C(N)=O)c4C3)C2)cc1', '8.00 to 11.00'),
  ('CC1(NC(=O)N2CCn3nc(-c4ccc(Cl)c(Cl)c4)c(C(N)=O)c3C2)CC2(C1)CC2(F)F (single isomer, unassigned) [Compound 329]', '8.00 to 11.00'),
  ('CC(F)(F)C(C)(C)NC(=O)N1CCn2nc(-c3ccc(F)c(Cl)c3)c(C(N)=O)c2C1', '8.00 to 11.00'),
  ('CC(C)(C)NC(=O)N1Cc2c(C(N)=O)c(-c3ccc(F)c(Cl)c3)nn2CC1C(F)(F)F (single isomer, unassigned) [Compound 347]', '8.00 to 11.00'),
  ('NC(=O)c1c(-c2cccc(F)c2)nn2c1CN(C(=O)Nc1ccc(F)cc1Cl)CC2', '7.00 to 8.00');

----------
Listing of entries alongside the reported pIC50.
Biological target: CK1δ (Homo sapiens, UniProt P48730)
Sequence (P48730 whole entry): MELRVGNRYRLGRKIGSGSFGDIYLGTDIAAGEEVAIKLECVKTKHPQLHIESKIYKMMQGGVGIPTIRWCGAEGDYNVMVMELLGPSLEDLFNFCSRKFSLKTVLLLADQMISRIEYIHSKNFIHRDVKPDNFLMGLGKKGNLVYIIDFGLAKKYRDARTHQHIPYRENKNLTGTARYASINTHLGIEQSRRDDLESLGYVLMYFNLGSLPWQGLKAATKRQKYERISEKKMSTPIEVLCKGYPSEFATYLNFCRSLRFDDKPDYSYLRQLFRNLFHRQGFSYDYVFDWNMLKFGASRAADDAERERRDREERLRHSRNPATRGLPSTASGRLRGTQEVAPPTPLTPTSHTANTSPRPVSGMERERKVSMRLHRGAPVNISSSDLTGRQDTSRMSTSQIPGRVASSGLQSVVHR
Test: CK1δ kinase assay (Caliper LabChip electrophoretic separation of fluoresceinated peptide substrate and product)
Assay type: biochemical
Details: 200 pM CK1δ, 50 μM ATP, 1.5 μM peptide, 22 hours at room temperature; read-out: CK1δ
pIC50: −log10 of the molar value.
metric: pIC50

INSERT INTO measurements (line_notation, metric, reading) VALUES
  ('CC1(NC(=O)N2CCn3nc(-c4ccc(Cl)c(Cl)c4)c(C(N)=O)c3C2)CC(F)(F)C1', 'pIC50', 9.30),
  ('CC(C)(C)NC(=O)N1CCn2nc(-c3cccc(C#N)c3)c(C(N)=O)c2C1', 'pIC50', 7.90),
  ('CC(C)(C)NC(=O)N1CCn2nc(-c3cccc(Cl)c3)c(C(N)=O)c2C1', 'pIC50', 9.05),
  ('NC(=O)c1c(-c2cccc(F)c2)nn2c1CN(C(=O)Nc1ccncc1)CC2', 'pIC50', 6.35),
  ('NC(=O)c1c(-c2ccc(Cl)c(Cl)c2)nn2c1CN(C(=O)NC1CC(F)(F)C1)C[C@@H]2CF', 'pIC50', 9.52),
  ('CC(C)(C)NC(=O)N1CCn2nc(-c3cc(F)ccc3F)c(C(N)=O)c2C1', 'pIC50', 6.91),
  ('CC(C)(C)NC(=O)N1CCn2nc(-c3cc(Cl)cc(C#N)c3)c(C(N)=O)c2C1', 'pIC50', 7.61),
  ('N#Cc1ccc(NC(=O)N2CCn3nc(-c4cccc(F)c4)c(C(N)=O)c3C2)cc1', 'pIC50', 8.59);

All figures here come from patent US9273058B2.
